src = the supplement of paper PMC10567573

experiment: protein stability index of a GFP-peptide fusion (GPS, HEK-293T) (PSI 1-6); higher = more stable; conditions: treatment: DMSO; c terminus: a fixed tail appended;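 further: 24-mer peptide tiles fused after GFP, lentivirally expressed, FACS-sorted into six equal bins by GFP/DsRed ratio, decoded by Illumina sequencing, PSI is the read-weighted mean bin number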
# protein stability index listing for each entry below
Parameter measured: protein stability index

INSERT INTO assay_data (chain_sequence, readout_value) VALUES
  ('RRKREVLVEDMVSQEEAQGLPSSE [ZNF24]', 5.31),
  ('TLMGKLKLKNTVTIQQEKLLAEKE [SASS6]', 3.41),
  ('RRLFGPVDSEQLRRDCDALMAGCI [CDKN1A]', 2.75),
  ('GFIRFDKRIEAEEAIKGLNGQKPL [ELAVL3]', 3.66);

----------
test: protein stability index of a GFP-peptide fusion (GPS, HEK-293T) (PSI 1-6); higher = more stable; settings: treatment: DMSO; c terminus: a fixed tail appended
protein stability index listing for selected sequences.
Parameter measured: protein stability index

INSERT INTO assay_data (chain_sequence, parameter_measured, readout_value) VALUES
  ('FSDVTFILDDGTISAHKPLLISSC [RHOBTB2]', 'protein stability index', 2.47),
  ('VLAARSPVFNAMFEHEMEESKKNR [SPOPL]', 'protein stability index', 3.73),
  ('TCFDQRKRANAAFLIGAYAVIYLK [CDC14A]', 'protein stability index', 2.05),
  ('ELGEEAMEKFREDEGFIKEEERPL [KCNA1]', 'protein stability index', 5.6),
  ('RPIPTPVGSVHVDSGASAITRESH [CSNK1G1]', 'protein stability index', 4.86),
  ('PDNCEMFLNFNGMKLFLDCLKEFP [ZER1]', 'protein stability index', 2.25),
  ('IWVPIKIGALTYFAQADALKGTLV [ACSBG2]', 'protein stability index', 2.76);

----------
experiment: protein stability index of a GFP-peptide fusion (GPS, HEK-293T) (PSI 1-6); higher = more stable; conditions: treatment: DMSO; c terminus: a fixed tail appended
# protein stability index >= 3 gives 1 (yes), anything below gives 0 (no)

INSERT INTO results (chain_sequence, answer_label) VALUES
  ('NGNRRRRKLRKTVNGDGSRENGNN [PHTF1]', '1 (yes)'),
  ('LSYRNGYAIVRRPTVGIGGDRLQF [EFHC1]', '0 (no)'),
  ('DVVEYLVDRCGASVEAGGSVHFDG [FEM1A]', '0 (no)'),
  ('KMSLYSEADSGYGSYGGFASAPTT [TRIM9]', '1 (yes)'),
  ('SPLAADPACLGQPHTPGKPTSSCT [FOXJ1]', '1 (yes)'),
  ('ALARNLLVDGETGESFPAQVPSGE [NFE2L1]', '1 (yes)'),
  ('TSRRPSGTGTGPEDGRPSLGSPYG [PDLIM4]', '1 (yes)'),
  ('LRVLPNLPCVVQEGAIVMARGRHV [PYCR3]', '0 (no)'),
  ('NVLGAQLDVEAAHSEILKYFQSVT [STX5]', '0 (no)'),
  ('ALVGDEVELPCRISPGKNATGMEV [MOG]', '1 (yes)'),
  ('YRPLKQELQGLDYCKPTRLDLLLD [SPSB1]', '0 (no)'),
  ('FIVLFLLWPFAWLQVAGLSEEQLQ [LPCAT4]', '0 (no)'),
  ('IASSDSEVEIVGVQEHARCVHPRG [C18orf25]', '1 (yes)'),
  ('LHREVRSTPLTATPGGRGDMKYGI [VTI1B]', '1 (yes)'),
  ('VLSLLSLEPAQRPPLSHIMAQPLC [NEK8]', '0 (no)'),
  ('YCFCGWIVLGPYHVKFRSLSMVSE [MCOLN1]', '0 (no)'),
  ('LPCDLPKVVSRAENLSVPVIGALL [LPCAT4]', '0 (no)'),
  ('CTSRIFVQKSIYSEFLKRFVEATR [ALDH8A1]', '0 (no)'),
  ('VEAVAYAPKKELINIKGISEAKAD [RAD51]', '1 (yes)'),
  ('VLEDNIIVSEVQFVESSGGGSSAV [BRF1]', '1 (yes)'),
  ('GTQFTFDQDPSVLYFSIHRYEQGR [HDAC6]', '0 (no)'),
  ('MGSQHSAAARPSSCRRKQEDDRDG [TMEM106C]', '1 (yes)'),
  ('HGQEGSILVTKVEEPSKYGVVVCE [GMPPB]', '1 (yes)'),
  ('NAKKLSMYGVDLHHAKDSEGVEIM [EPB41L3]', '1 (yes)'),
  ('NVNETDDWGRTALHYAAASDMDRN [ANKRD44]', '1 (yes)'),
  ('RLLVGLALATLRVLRGLARPEHPP [TMEM175]', '0 (no)'),
  ('VVCQPNEFIMPDSAVVGDVLVLTK [SEPHS2]', '0 (no)'),
  ('AVYDGSSSVEDLKAKFCSTVANDV [NETO1]', '1 (yes)'),
  ('GADREFIEARRRALKRFVNLVARH [SNX8]', '0 (no)'),
  ('KWRKVGRSLQRGCRALRDPALDSL [TRADD]', '0 (no)'),
  ('MHRLGEPQARMREENMERIGEEVR [BEX1]', '1 (yes)'),
  ('LFEEEDHVKKLQQKVATLEKRNRQ [CCDC3]', '1 (yes)'),
  ('LIHQHEKVIYLDDDVIVQGDIQEL [GLT8D2]', '1 (yes)'),
  ('TIDKQREEMAKSSRASAARVGQLQ [LRRC45]', '1 (yes)'),
  ('DAIGEGKVTLRIRNVRFSDEGGFT [MOG]', '0 (no)'),
  ('IHCENCKTTLGWKYEQAFESSQKY [YPEL3]', '0 (no)');
